This section presents compounds with their documented IC50 values.
# Target Or System: GPR84 (Homo sapiens, UniProt Q9NQS5)
# Construct: expressed in transfected cells
# Sequence (Q9NQS5 whole entry): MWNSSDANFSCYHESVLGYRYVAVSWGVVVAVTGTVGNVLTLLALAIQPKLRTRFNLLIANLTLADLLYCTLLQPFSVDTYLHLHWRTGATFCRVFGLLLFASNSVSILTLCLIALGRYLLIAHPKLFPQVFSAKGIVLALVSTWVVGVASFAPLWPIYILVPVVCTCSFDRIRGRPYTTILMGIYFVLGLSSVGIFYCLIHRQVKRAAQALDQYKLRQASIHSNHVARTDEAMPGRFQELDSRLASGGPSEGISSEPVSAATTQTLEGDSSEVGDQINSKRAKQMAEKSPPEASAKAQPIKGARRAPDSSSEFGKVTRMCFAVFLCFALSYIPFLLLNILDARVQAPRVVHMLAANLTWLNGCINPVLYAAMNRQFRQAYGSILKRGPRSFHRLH
# Assay Comment: GPR84 [35S]GTPγS binding assay, HEPES buffer
# Type: biochemical
# Condition Set: 3,3′ di indolylmethane at EC80, membranes from stable cell line over expressing GPR84

Answered cases to consult:
# Compound, Target Or System, Experimental Value
rows = [
    ("COC(=O)c1cccc(COc2ccc3c(c2)CCn2c-3cc(OCC3CCCO3)nc2=O)c1 (centres unmarked)", "GPR84 (Homo sapiens, UniProt Q9NQS5)", "0.01 to 100 nM"),
    ("COc1ncc(-c2ccc3c(c2)CCn2c-3cc(OCC3COc4ncccc4O3)nc2=O)cn1 (centres unmarked)", "GPR84 (Homo sapiens, UniProt Q9NQS5)", "0.01 to 100 nM"),
    ("Cn1cc(-c2cccc(COc3ccc4c(c3)CCn3c-4cc(OCC4CCCO4)nc3=O)n2)cn1 (centres unmarked)", "GPR84 (Homo sapiens, UniProt Q9NQS5)", "100 to 500 nM"),
    ("O=c1nc(OCC2CCCO2)cc2n1CCc1cc(OCCOc3cccc(Cl)c3)ccc1-2 (centres unmarked)", "GPR84 (Homo sapiens, UniProt Q9NQS5)", "0.01 to 100 nM"),
]

Request: What reported IC50 corresponds to CC(C)C1CC(COc2cc3n(c(=O)n2)CCc2cc(C#CC4CC4)ccc2-3)O1 (centres unmarked) on GPR84 (Homo sapiens, UniProt Q9NQS5)?
Result: 500 to 1000 nM
